system-name: BRD4-BD2 (Homo sapiens (Human), UniProt O60885)
assay-info: competitive TR-FRET assay, BET-BD with acetylated peptide ligand
Format: binding
assay-conditions: BRD4-BD2; Table 11 additional modifications; read-out: 4.2 EC50
Item-by-item account of pEC50
In plain terms, pEC50 is the concentration in mol/L turned into minus its base-10 logarithm.

Examples with their reported pEC50 follow.
CC(=O)N1c2ccc(-c3cccc([N+](=O)[O-])c3)cc2[C@H](NC(=O)OC(C)C)C[C@@H]1C [compound 58]
5.21
CC(=O)N1c2ccc(C3=CCCO3)cc2[C@H](NC(=O)OC(C)C)C[C@@H]1C [compound 85]
4.92

Kindly consider the entry below.
Exercise: What reported pEC50 corresponds to CC(=O)Nc1cccc(-c2ccc3c(c2)[C@H](Nc2ccc(N(C)C(C)=O)cc2)C[C@H](C)N3C(C)=O)c1 [compound 11] on BRD4-BD2 (Homo sapiens (Human), UniProt O60885)?
Solution: 4.29

###

system-name: BRD2-BD1 (Homo sapiens (Human), UniProt P25440)
Sequence (P25440 74-180): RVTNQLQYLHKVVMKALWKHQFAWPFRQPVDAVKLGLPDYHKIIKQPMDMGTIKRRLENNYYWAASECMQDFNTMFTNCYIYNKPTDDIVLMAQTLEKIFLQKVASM
assay-info: competitive TR-FRET assay, BET-BD with acetylated peptide ligand
Format: binding
assay-conditions: BRD2-BD1; Table 11 additional modifications; read-out: 2.1 EC50
Description: Inhibitor potency was determined using a competitive TR-FRET assay as detailed herein, measuring interaction of the respective BET-BD with an acetylated peptide ligand (Table 2).
Item-by-item account of EC50
Write the answer as a number in µM, unit excluded.

Exercise: # EC50 lookup, item CC(=O)Nc1cccc(-c2ccc3c(c2)[C@H](NC(=O)c2ccc(C(F)(F)F)cc2)C[C@H](C)N3C(C)=O)c1
Solution: 75

###

system-name: BRD2-BD2 (Homo sapiens (Human), UniProt P25440)
Sequence (P25440 344-453): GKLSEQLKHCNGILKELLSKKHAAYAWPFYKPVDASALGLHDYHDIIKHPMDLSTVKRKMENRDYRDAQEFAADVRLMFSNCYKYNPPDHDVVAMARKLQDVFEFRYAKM
assay-info: competitive TR-FRET assay, BET-BD with acetylated peptide ligand
Type: binding
assay-conditions: ratio of BRD2-BD1 EC50 to BRD2-BD2 EC50 (selectivity)
measured-property: 2.1/2.2
Enter a number only.

Examples with their reported 2.1/2.2 follow.
CC(=O)Nc1cccc(-c2ccc3c(c2)[C@H](Nc2ccc4c(c2)OCO4)C[C@H](C)N3C(C)=O)c1
20
COc1cc(F)ccc1N[C@@H]1C[C@H](C)N(C(C)=O)c2ccc(-c3ccn(C)n3)cc21
8.2
CC(=O)Nc1cccc(-c2ccc3c(c2)[C@H](Nc2ccc(C(=O)COC(C)=O)cc2)C[C@H](C)N3C(C)=O)c1
21
CC(=O)Nc1cccc(-c2ccc3c(c2)[C@H](NC(=O)CCc2ccccc2)C[C@H](C)N3C(C)=O)c1
0.65

Exercise: What reported 2.1/2.2 corresponds to CC(=O)N1c2ccc(-c3ccnn3C)cc2[C@H](Nc2ccccc2OC(F)(F)F)C[C@@H]1C on BRD2-BD2 (Homo sapiens (Human), UniProt P25440)?
Solution: 5.0

Exercise: What reported 2.1/2.2 corresponds to CC(=O)Nc1cccc(-c2ccc3c(c2)[C@H](NC(=O)OC(C)C)C[C@H](C)N3C(C)=O)c1 on BRD2-BD2 (Homo sapiens (Human), UniProt P25440)?
Solution: 2.9

Exercise: What reported 2.1/2.2 corresponds to COC(=O)c1ccc(N[C@@H]2C[C@H](C)N(C(C)=O)c3ccc(-c4cn(C)cn4)cc32)cc1 on BRD2-BD2 (Homo sapiens (Human), UniProt P25440)?
Solution: 52

Exercise: What reported 2.1/2.2 corresponds to CC(=O)N1c2ccc(-c3cccc(NCCCc4ccccc4)c3)cc2[C@H](NC(=O)OC(C)C)C[C@@H]1C on BRD2-BD2 (Homo sapiens (Human), UniProt P25440)?
Solution: 5.6

Exercise: What reported 2.1/2.2 corresponds to CC(=O)N1c2ccc(-c3cccc(NCC4CCOC4)c3)cc2[C@H](NC(=O)OC(C)C)C[C@@H]1C (some centres unmarked) on BRD2-BD2 (Homo sapiens (Human), UniProt P25440)?
Solution: 0.095

Exercise: What reported 2.1/2.2 corresponds to CC(=O)Nc1cccc(-c2ccc3c(c2)[C@H](Nc2ccccc2C#N)C[C@H](C)N3C(C)=O)c1 on BRD2-BD2 (Homo sapiens (Human), UniProt P25440)?
Solution: 35

Exercise: What reported 2.1/2.2 corresponds to CC(=O)Nc1cccc(-c2ccc3c(c2)[C@H](NC(=O)c2ccccc2)C[C@H](C)N3C(C)=O)c1 on BRD2-BD2 (Homo sapiens (Human), UniProt P25440)?
Solution: 6.0
